Test system: green foxtail (Setaria viridis, SETVI)
Assay: Post-emerge greenhouse herbicide test, phytotoxicity rating
Assay type: in vivo
Conditions: 500 g al/ha, 14 days after application
Entries whose SETVI phytotoxicity rating (0-100) is below 60 take MET; entries at or above 60 take NOT MET.

O=c1n(CCCF)nnn1-c1cc(Oc2ncccc2C(F)(F)F)c(Cl)cc1F | MET
N#Cc1cc([N+](=O)[O-])ccc1Oc1cc(-n2c(=O)n3n(c2=S)CCCC3)c(F)cc1Cl | MET
Cn1nc(-c2cc(Oc3cccc(F)n3)c(Cl)cc2F)c(Cl)c1C(F)(F)F | NOT MET
Cn1c(C(F)(F)F)nc(-c2cc(Oc3ncccn3)c(Cl)cc2F)c1Cl | NOT MET

Here is another molecule to look at.
Item `Cc1nsc(Oc2cc(-n3nnn(CCCF)c3=O)c(F)cc2Cl)c1[N+](=O)[O-]` : SETVI phytotoxicity rating (0-100) beneath 60, strictly?
MET

====

System: soybean (Glycine max L., var. Pella 86, SOY)
Experiment: Post-emerge greenhouse test, crop damage rating
Format: in vivo
Set-up: key: 0-100 scale: 0 = no damage, 100 = complete death of all plants
Conditions: rate 500 g ai/ha, 14 days after application, scale 0-100
Collected crop damage rating SOY values appear next to each entry.
Please reply with the value in numeric form only.

Nn1c(C(F)(F)F)cc(=O)n(-c2cc(Oc3cccc(C(F)(F)F)c3)c(Cl)cc2F)c1=O | 80
COc1cc(Oc2cc(-n3c(=O)n4n(c3=S)CCCC4)c(F)cc2Cl)nc(OC)n1 | 80
O=c1n(-c2cc(Oc3nccc(Cl)n3)c(Cl)cc2F)c(=S)n2n1CCCC2 | 70
O=c1n(-c2cc(Oc3ncccc3[N+](=O)[O-])c(Cl)cc2F)c(=S)n2n1CCCC2 | 50

Item `Nn1c(C(F)(F)F)cc(=O)n(-c2cc(Oc3cccc(F)n3)c(Cl)cc2F)c1=O` was tested on soybean (Glycine max L., var. Pella 86, SOY); the reported crop damage rating SOY is 100

Item `CC(C)S(=O)(=O)c1cccnc1Oc1cc(-n2c(=O)n3n(c2=S)CCCC3)c(F)cc1Cl` was tested on soybean (Glycine max L., var. Pella 86, SOY); the reported crop damage rating SOY is 100

====

Tested on: soybean (Glycine max L., var. Pella 86, SOY)
Assay: Pre-emerge greenhouse test, crop damage rating
Type: in vivo
Set-up: key: 0 = no damage, 100 = complete death of all plants
Details: Rate 500 g al/ha, 14 days after application, rating scale 0-100
Collected SOY crop damage rating values appear next to each entry.
Please reply with the value in numeric form only.

COc1cc(OC)nc(Oc2cc(-n3c(=O)n4n(c3=S)CCCC4)c(F)cc2Cl)n1 | 30
O=c1n(-c2cc(Oc3ccc([N+](=O)[O-])cn3)c(Cl)cc2F)c(=S)n2n1CCCC2 | 20
COc1nc(OC)nc(Oc2cc(-n3c(=O)n4n(c3=S)CCCC4)c(F)cc2Cl)n1 | 0

Note to self: SOY crop damage rating recorded for `N#Cc1cccnc1Oc1cc(-n2c(=O)n3n(c2=S)CCCC3)c(F)cc1Cl` was 25

====

Tested on: upland rice (Oryza sp., var.Tebonnet, RICE)
Assay: Pre-emerge greenhouse test, crop damage rating
Assay type: in vivo
Conditions: Rate 250 g al/ha, 14 days after application, rating scale 0-100
Collected RICE crop damage rating values appear next to each entry.
Please reply with the value in numeric form only.

Before answering, review these 3 worked examples.
CCOC(=O)C(C)Oc1ccc(Oc2cc(-n3c(=O)n4n(c3=S)CCCC4)c(F)cc2Cl)c(N)c1 (stereo not shown) | 0
O=c1n(-c2cc(Oc3ncc([N+](=O)[O-])s3)c(Cl)cc2F)c(=S)n2n1CCCC2 | 70
Nc1cccnc1Oc1cc(-n2c(=O)n3n(c2=S)CCCC3)c(F)cc1Cl | 0

Note to self: RICE crop damage rating recorded for CCOC(=O)C(C)Oc1cc([N+](=O)[O-])c(Oc2cc(-n3c(=O)n4n(c3=S)CCCC4)c(F)cc2Cl)cc1Cl (stereo not shown) was 0

Note to self: RICE crop damage rating recorded for `CSc1cccnc1Oc1cc(-n2c(=O)n3n(c2=S)CCCC3)c(F)cc1Cl` was 20

Note to self: RICE crop damage rating recorded for CCOC(=O)C(C)Oc1ccc(Oc2cc(-n3c(=O)n4n(c3=S)CCCC4)c(F)cc2Cl)c([N+](=O)[O-])c1 (stereo not shown) was 20

Note to self: RICE crop damage rating recorded for CCOC(=O)C(C)Oc1ccc(Oc2cc(-n3c(=O)n4n(c3=O)CCCC4)c(F)cc2Cl)c([N+](=O)[O-])c1 (stereo not shown) was 0
